Provide the reported Kd of each item.
ASSAYED_TARGET: RVV-X (Russell's viper venom factor X activator) (UniProt Q7LZ61;Q4PRD1;Q4PRD2 Q7LZ61:189-619,Q4PRD1:24-146,Q4PRD2:25-158)
PROTOCOL_TEXT: EMSA
RUN_CONDITIONS: tags: Haematologic Technologies; label: 32P end
Answers are plain numbers, in µM.

Field: example entries. Status: answers known.
BINDER: SEQ ID NO. 1 (ssRNA) RNA: UAGCGACAAGGCGACAAGCAAUGACACAUUAACAGACCCUGGUUAGUGAACGAA
DISPLAY_UNIT: µM
Kd: 0.03

BINDER: 74 alone (ssRNA) RNA: UCCUCAAAGCGACCGACCUUUGCCUAAACAGCUGAUGGUUUACAAAGGAAGCACG
DISPLAY_UNIT: µM
Kd: 0.075

BINDER: SEQ ID NO. 2 (ssRNA) RNA: AAGGCGAGGUGCGACCCGCACGUGGCAUCUGAUAGCACAUGAAAAGGCACGUCA
DISPLAY_UNIT: µM
Kd: 0.023

BINDER: SEQ ID NO. 6 (ssRNA) RNA: UGGCGGAUACUCUGCGAAGGGCGAACCCAACAUUUCGCACAGGACCGACUACUGCA
DISPLAY_UNIT: µM
Kd: 0.019

BINDER: SEQ ID NO. 3 (ssRNA) RNA: UCUUCCAACGACCAUGCGGCGACAAGCGACUACAAGAGGGUACCCACGGACAGCA
DISPLAY_UNIT: µM
Kd: 0.0947

# evaluate next
Quick one: Kd for SEQ ID NO. 4 (ssRNA) RNA: UGGCGACGAGGCGGCAGGCAAUGACACAUUAGCAGACCCUGGUUAAUGAGCGAA ?
0.158

The measured values listed here are drawn from patent US20140011209.
